# PROTOCOL_NOTES: yeast display, Sf9 membrane polyspecificity reagent, FACS + sequencing; frameworks hold sequencing errors
METRIC: polyreactivity (PSR sort gate)

QVQLVESGGGLVQAGGSLSLSCAASGSTFLKYTMGWYRQAPWKERELVAAISKSGGSTYYADSVKGRFTISRDNAKNTVYLQMNSLKPEDTAVYYCAKGRYWVYSYGYGYWGQGTQVTVSS :: high polyreactivity
QVQLVESGGGLVQAGGSLRLSCAASGFTFFEDNAMGWYRQAPGKERELVAAITSGGSTNYADSVKGRFTISRDNAKNTVYLQMISLKPEDTAVYYCAKDRVPLKTRFYYFPWGYDYWGQGTQVTVSS :: low polyreactivity
QVQLVESGGGLVQAGGSLRLSCAASGITFYYYAMGWYRQAPGKERELVAAISDNGSRTYYADSVKGRFTISRDNAKNTVYFQMNSLKPEDTAVYYCAADWFYTNVRYRYAYGGYYWGQGTQVTVSS :: high polyreactivity
QVQLVESGGGLVQAGGSLRLSCAASGSIIGYYAMGWYRQAPGKERELVAAISRTGGSTYYADSVKGRFTISRDNAKNTVFLPMNSLKPEDTAVYYCATRTYARHDYWGQGTQGTVSS :: high polyreactivity
QVQLVESGGGLVQAGGSLRLSCAASGSTFWYNMGWYRQAPGKERELVAAISYSSGRTYYADSVKGRFTISRDNAKNTVYLQMNSLKPEDTAVYYCAARYPRTRRYGYWGQGTQVTVSS :: high polyreactivity
QVQLVESGGGLVQAGGSLRLSCAASGSTFPVNAMGWYRQAPGKEREMVASITWGDGSTYYADSVKGRFTISRDNAKNTVYLQMNSLKPEDTADYYCNKDFFYGYDAASYRPEYDYWGQGTQVTVSS :: low polyreactivity
QVQLVESGGGLVQAGGSLRLSCAASGFTFGGYAMGWYRQAPGKERELVAAISGRGGRTYYADSVKGRFTISRDNAKNTVYLQMNSLKPEDTAVYYCAAPTNHWTLLSGDYWGQGTQVTVSS :: high polyreactivity
QVQLVESGGGLVQAGGSLRLSCAASGSTFYAYDMGWYRQAPGKERELVAAISSGGSTYYADSVKGRFTISRDNAKNTVYLQMNSLKPEDTAVYYCATEYTYELEASEPSDYDYWGQGTQVTVSS :: low polyreactivity
QVQLVESGGGLVQAGGSLRLSCAAYGRISAMGWYRQAPGKERELVAAISRGGSTYYADSVKGRFTISRDNAKNTVYLQMNSLKPEDTAVYYCARRYASTGYDYWGQGTQVTVSS :: high polyreactivity
QVQLVESGGGLVQAGGSLRLSCAASGYICVRYAMGWYRQAPGKEREFVAAISSSGGSTRYADSVKGRFTISRDNAKNTVYLQMNSLKPEDTAVYYCAATRVARHGSPMYYWGQGTQVTVSS :: high polyreactivity

Looking for the measured polyreactivity (PSR sort gate) of "QVQLVESGGGLVQAGGSLRLSCAASGSIFYFNGLGWSRQSPGKEREFVAAITWGDGSTYYADSVKGRFTISRDNAKNTVYLQMNSLKPADTAVYYCAAVLLIFKYVPRYDYWGQGSQVTVSS" , can you help?
low polyreactivity
